So I've got a bunch of compounds here, and I need their k2, average of all regions and all animals values.
Test system: SERT
Measurement protocol: Baboon PET imaging: brain uptake, kinetic analysis and SERT parameters
Assay type: in vivo
Test conditions: baboons

>  <Compound>
CN(C)Cc1ccccc1Sc1ccc(I)cc1N [[^11C]ADAM]

>  <Tgt>
SERT

>  <Experimental result>
0.028 ± 0.011 min⁻¹

$$$$
>  <Compound>
CN(C)Cc1ccccc1Sc1ccc(Br)cc1N [[^11C]DAPA]

>  <Tgt>
SERT

>  <Experimental result>
0.020 ± 0.008 min⁻¹

$$$$
>  <Compound>
CN(C)Cc1ccccc1Sc1ccc(C#N)cc1N [[^11C]DASB]

>  <Tgt>
SERT

>  <Experimental result>
0.047 ± 0.018 min⁻¹

$$$$
>  <Compound>
[11CH3]Sc1ccc([C@H]2CN3CCC[C@H]3c3ccccc32)cc1 [[^11C]McN 5652]

>  <Tgt>
SERT

>  <Experimental result>
0.025 ± 0.008 min⁻¹

$$$$

Query compound follows.
For the compound CN([11CH3])Cc1ccccc1Sc1ccc(CF)cc1N [[^11C]AFM] , give its reported k2, average of all regions and all animals.
0.030 ± 0.015 min⁻¹

###

Tested on: SERT
Measurement protocol: Baboon PET imaging: brain uptake, kinetic analysis and SERT parameters
Assay type: in vivo
Test conditions: baboons
Procedure: PET imaging protocol: PET experiments (n=20) were performed at Columbia University. Two adult male baboons (baboon A and B) were studied twice with each of the 5 radioligands (4 experiments per radioligand). […] Experiments were performed according to protocols approved by the Columbia-Presbyterian Medical Center Institutional Animal Care and Use Committee. […] Vital signs were monitored every 10 minutes and the temperature was kept constant at 37° C. with heated water blankets. […]
Endpoint: K1, average of all regions and all animals (mL/g/min)
Give bare numbers, in mL/g/min.

>  <Compound>
CN([11CH3])Cc1ccccc1Sc1ccc(CF)cc1N [[^11C]AFM]

>  <Unit string>
mL/g/min

>  <Experimental result>
1.44

$$$$
>  <Compound>
CN(C)Cc1ccccc1Sc1ccc(C#N)cc1N [[^11C]DASB]

>  <Unit string>
mL/g/min

>  <Experimental result>
1.21

$$$$

Items follow; give K1, average of all regions and all animals for each.
1. [11CH3]Sc1ccc([C@H]2CN3CCC[C@H]3c3ccccc32)cc1 [[^11C]McN 5652]
2. CN(C)Cc1ccccc1Sc1ccc(I)cc1N [[^11C]ADAM]
3. CN(C)Cc1ccccc1Sc1ccc(Br)cc1N [[^11C]DAPA]

[0.93, 1.09, 0.85]

###

So I've got a bunch of compounds here, and I need their K2 Occipital Cortex values.
Tested on: SERT
Measurement protocol: Baboon PET imaging: brain uptake, kinetic analysis and SERT parameters
Format: in vivo
Test conditions: one-tissue compartment model; baboons, mean ± SD of four experiments
One number for each entry, in min⁻¹.

For orientation, consider the following solved cases.
>  <Compound>
CN(C)Cc1ccccc1Sc1ccc(I)cc1N [[^11C]ADAM]

>  <K2 Occipital Cortex (min⁻¹)>
0.034

$$$$
>  <Compound>
CN([11CH3])Cc1ccccc1Sc1ccc(CF)cc1N [[^11C]AFM]

>  <K2 Occipital Cortex (min⁻¹)>
0.036

$$$$
>  <Compound>
CN(C)Cc1ccccc1Sc1ccc(Br)cc1N [[^11C]DAPA]

>  <K2 Occipital Cortex (min⁻¹)>
0.024

$$$$
>  <Compound>
CN(C)Cc1ccccc1Sc1ccc(C#N)cc1N [[^11C]DASB]

>  <K2 Occipital Cortex (min⁻¹)>
0.059

$$$$

For the compound [11CH3]Sc1ccc([C@H]2CN3CCC[C@H]3c3ccccc32)cc1 [[^11C]McN 5652] , give its reported K2 Occipital Cortex.
0.031

###

System: SERT
Measurement protocol: Baboon PET imaging: brain uptake, kinetic analysis and SERT parameters
Type: in vivo
Test conditions: baboons, mean of all regions
So I've got a bunch of compounds here, and I need their Mean regional wash-out (% decrease between peak time and last scan) values.
One number for each entry, in %.

>  <Compound>
CN(C)Cc1ccccc1Sc1ccc(C#N)cc1N [[^11C]DASB]

>  <Experimental result>
52

$$$$

Items follow; give Mean regional wash-out (% decrease between peak time and last scan) for each.
1. CN(C)Cc1ccccc1Sc1ccc(Br)cc1N [[^11C]DAPA]
2. [11CH3]Sc1ccc([C@H]2CN3CCC[C@H]3c3ccccc32)cc1 [[^11C]McN 5652]
3. CN([11CH3])Cc1ccccc1Sc1ccc(CF)cc1N [[^11C]AFM]

1. 12
2. 24
3. 32

For the compound CN(C)Cc1ccccc1Sc1ccc(I)cc1N [[^11C]ADAM] , give its reported Mean regional wash-out (% decrease between peak time and last scan).
25

###

So I've got a bunch of molecules here, and I need their % ID/g Hippocamp. values.
Measurement protocol: Biodistribution of labeled radioligands in male Sprague-Dawley rats
Type: in vivo
Test conditions: 30 min post-injection; mean ± SD, n = 3

For orientation, consider the following solved cases.
>  <Molecule>
CN(C)Cc1ccccc1Sc1ccc([18F])cc1N [[^18F]AFA]

>  <Endpoint>
% ID/g Hippocamp.

>  <Experimental result>
0.48 ± 0.02 % ID/g

$$$$
>  <Molecule>
Cc1ccc(Sc2ccccc2CN(C)[11CH3])c(N)c1 [[^11C]MADAM]

>  <Endpoint>
% ID/g Hippocamp.

>  <Experimental result>
1.14 ± 0.17 % ID/g

$$$$
>  <Molecule>
CN([11CH3])Cc1ccccc1Sc1ccc(F)cc1N [[^11C]AFA]

>  <Endpoint>
% ID/g Hippocamp.

>  <Experimental result>
0.34 ± 0.02 % ID/g

$$$$
>  <Molecule>
CN([11CH3])Cc1ccccc1Sc1ccc(CF)cc1N [[^11C]AFM]

>  <Endpoint>
% ID/g Hippocamp.

>  <Experimental result>
0.95 ± 0.29 % ID/g

$$$$
>  <Molecule>
CN(C)Cc1ccccc1Sc1ccc(CC[18F])cc1N [[^18F]AFE]

>  <Endpoint>
% ID/g Hippocamp.

>  <Experimental result>
0.27 ± 0.04 % ID/g

$$$$
>  <Molecule>
CN(C)Cc1ccccc1Sc1ccc(C[18F])cc1N [[^18F]AFM]

>  <Endpoint>
% ID/g Hippocamp.

>  <Experimental result>
0.64 ± 0.12 % ID/g

$$$$

Query molecule follows.
For the molecule CN(C)Cc1ccccc1Sc1ccc(CCF)cc1N [[^11C]AFE] , give its reported % ID/g Hippocamp..
0.31 ± 0.03 % ID/g

###

UniProt P23975 data, read-out Ki
Sequence (P23975 whole entry, species assumed): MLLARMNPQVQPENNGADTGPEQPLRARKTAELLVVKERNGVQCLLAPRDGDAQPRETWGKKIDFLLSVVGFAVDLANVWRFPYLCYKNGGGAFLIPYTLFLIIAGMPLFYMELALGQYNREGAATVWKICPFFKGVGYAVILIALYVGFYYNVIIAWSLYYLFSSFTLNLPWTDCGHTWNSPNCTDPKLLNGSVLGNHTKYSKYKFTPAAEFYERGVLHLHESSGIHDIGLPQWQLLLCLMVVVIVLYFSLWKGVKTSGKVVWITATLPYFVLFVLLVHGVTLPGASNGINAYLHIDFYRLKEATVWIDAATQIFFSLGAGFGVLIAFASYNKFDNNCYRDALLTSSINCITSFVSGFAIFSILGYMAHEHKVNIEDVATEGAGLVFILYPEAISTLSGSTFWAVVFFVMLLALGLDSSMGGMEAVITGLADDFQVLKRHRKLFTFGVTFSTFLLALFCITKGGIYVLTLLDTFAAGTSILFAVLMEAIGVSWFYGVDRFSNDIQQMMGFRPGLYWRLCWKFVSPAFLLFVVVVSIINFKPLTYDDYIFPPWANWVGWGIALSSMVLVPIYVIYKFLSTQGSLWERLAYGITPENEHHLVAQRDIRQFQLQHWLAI
One number for each entry, in nM.

>  <Smiles notation>
CN(C)Cc1ccccc1Sc1ccc(CF)cc1N

>  <Unit string>
nM

>  <Ki>
664

$$$$
>  <Smiles notation>
CN(C)Cc1ccccc1Sc1ccc(F)cc1N

>  <Unit string>
nM

>  <Ki>
142

$$$$
>  <Smiles notation>
CN(C)Cc1ccccc1Sc1ccc(CCF)cc1N

>  <Unit string>
nM

>  <Ki>
946

$$$$
>  <Smiles notation>
CN(C)Cc1ccccc1Sc1ccc(CCCF)cc1N

>  <Unit string>
nM

>  <Ki>
505

$$$$
>  <Smiles notation>
Cc1ccc(Sc2ccccc2CN(C)C)c(N)c1

>  <Unit string>
nM

>  <Ki>
320

$$$$

For the compound CN(C)Cc1ccccc1Sc1ccc(I)cc1N , give its reported Ki.
1350

###

System: SERT
Measurement protocol: Baboon PET imaging: brain uptake, kinetic analysis and SERT parameters
Assay type: in vivo
Test conditions: baboons, combining all regions
Protocol: PET imaging protocol: PET experiments (n=20) were performed at Columbia University. Two adult male baboons (baboon A and B) were studied twice with each of the 5 radioligands (4 experiments per radioligand). […] Experiments were performed according to protocols approved by the Columbia-Presbyterian Medical Center Institutional Animal Care and Use Committee. […] Vital signs were monitored every 10 minutes and the temperature was kept constant at 37° C. with heated water blankets. […]
So I've got a bunch of molecules here, and I need their V3″ expressed in percentage of [^11C]McN 5652 V3″ values.

For orientation, consider the following solved cases.
>  <Molecule>
CN([11CH3])Cc1ccccc1Sc1ccc(CF)cc1N [[^11C]AFM]

>  <Experimental result>
193±35%

$$$$
>  <Molecule>
CN(C)Cc1ccccc1Sc1ccc(Br)cc1N [[^11C]DAPA]

>  <Experimental result>
151±18%

$$$$
>  <Molecule>
CN(C)Cc1ccccc1Sc1ccc(I)cc1N [[^11C]ADAM]

>  <Experimental result>
128±24%

$$$$

Query molecule follows.
For the molecule CN(C)Cc1ccccc1Sc1ccc(C#N)cc1N [[^11C]DASB] , give its reported V3″ expressed in percentage of [^11C]McN 5652 V3″.
142±29%

###

So I've got a bunch of molecules here, and I need their melting point values.
Structures can show the parent of a compound that is named as a salt.

For orientation, consider the following solved cases.
>  <Molecule>
CN(C)Cc1ccccc1Sc1ccc(F)cc1N (as salt: tartrate) [AFA]

>  <melting point>
158 to 159 °C

$$$$
>  <Molecule>
CNCc1ccccc1Sc1ccc(C)cc1N (as salt: tartrate) [Example 39]

>  <melting point>
164 to 166 °C

$$$$
>  <Molecule>
CNCc1ccccc1Sc1ccc(F)cc1N (as salt: tartrate) [Example 41]

>  <melting point>
106 to 108 °C

$$$$

Query molecule follows.
For the molecule CN(C)Cc1ccccc1Sc1ccc(CF)cc1N (as salt: tartrate) [AFM] , give its reported melting point.
142 to 143 °C
